The origin of these recorded values is the NTF2 design screens of Basanta et al. (2020).

procedure summary: protease stability score; higher = more stable; yeast display proteolysis, trypsin and chymotrypsin;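 note: relative to predicted unfolded state with 0 unfolded-like and 1 meaning tenfold more protease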
protease stability score for assorted sequences

# residue codes, protease stability score
rows = [
    ("DQREETTNRALHEFIENLITGDEHELLRLLDPNTKMIWNGRENHGWKRAKTVLKEFLERIDVFKDHKLRNMELQGNKAEVEGQVIFEIDGKEVRHDLSLIFLKVDGKWMIESIEIR", 1.34),
    ("DEDEKEYTEMVLILSRMIETGDEDSLRRLMDPHAKIHINGKEIHGRELWVHILHEHKRKLGYDNIRVNVHRIWVHGDKIRVHGHLHIDGKEHEVHVHIEKINGRWVLRHDEIR", 1.68),
    ("SEEEKLSRELVNEFLRLWKTGDWRRFHELADPDAKQQYNVNGQNFDYHGRDEVTDAVREFLNRLGVDHFHVHDSRIIGEKKEIDGHLNFNGRTHHIEMVVVVINGRVHKIEFHVR", 0.28),
    ("DEDTHRLELVLDLWSFAMLTGDEETLTKLIDPNMRIEIGDKIAHGREKLHEMLREIRIQIHHVHLDDYRVYGNKITLHVHIRMTLHVDGRTIHTELKTEIIIHKIDGKWVFHKVRFE", 1.28),
    ("TEDEELTSRANKEFQEFETTGDEEVLKRLFDPNTRLDVNGQDRHGRDEVVHLLVRMIHKLGIDHVSLKEVRIVNGKLDLNLTINVGEKRINTRLIHKKVNGRWVIETVEMG", 1.23),
    ("SEHHEKLLHLTTLFLEAFWTGDEDIFHHLLDPNVKSIFNGREIHGRHIFSDLRRQIRVERTHVEHEQIVDGRVFMHGKSDGHINGRTHKSHLEIEIVVFDGKVERIKIELR", 0.499),
    ("DERRKLEEDILELMLRVFETGDFDTFIKFADPNTRSDVNGRQYHGREWLAEMWKITLEELGADHFELTSYDVFNGRVHLRIRVHVGDKQRSMTIEIQVINGKVQSIRIDIE", 1.4),
    ("DEKEEEMEIASELALHVWETGDPDEFLKLADPHVKIDFDGVDIHGMDKEHERWKRVKNLTMHIKRFSYQGDKVHLDVILIVNGRTETIHIIASKVNGRWLIKRVIINRR", 1.37),
    ("SEDEDNMHEFFRIWSRVQETGDEEAMLKLMDPNVRTDINGVELHGREEFEKELHRLIFEWGFDRFVVHIEHEDIFNGRIHVRSRVIYGDKEVHVIIHVYKVNGQWRVEELRFE", 1.41),
    ("DEDHEIATKVLELWERLINTGDEEQMSRLADPNTKITIGEKDIVGREDIIKDMRHIRWKVKDFKIHDSSVIDGRIHLDGEMHVIFDVNGRRHERTIRMEIIVEKIDGRWVFKSIHIE", 1.3),
    ("DEDEERVREFFELFFKALFTGDEEELKRLLDPHVKLIINGREFVGREQMTRLLNEIRVSWTELRIRRIERQGDKVIFDAEVHVERHQGDYHEQKTIKVILYMRKVDGRWLLESIEIR", 2.38),
]

====

procedure summary: protease stability score; higher = more stable; yeast display proteolysis, trypsin and chymotrypsin;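 note: relative to predicted unfolded state with 0 unfolded-like and 1 meaning tenfold more protease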
Would you please tag the item Yes when its protease stability score is 2 or above, and No when it is below?

# residue codes, classification
records = [
    ("DDMHEVAKQLMEELVRNWITGNEDNVRHLLDPDVRIIIGDFIFHGRESLELLLHFYNKHIRWTDYKVHDFRIQGDYLHMDTRLIGIIDGRHVILETQMVAVKINGRWRVKSLEVR", "Yes"),
    ("SEEEKRMTEDAEHFWRRFLTGDWRTLSRLIDPHVIIHINGVDLHGRHDAHREMEEHAEQFKNIKVHIDHIDVVGDKLHVDVTININGRRFKEEIIIVMFNGRVKELEVRTH", "No"),
    ("DKLDKLLREMLELFNHLLKTGDWDTITKLVDPNVRIDINGQELHGMELILEWWLRLGIRNEHERERDRDSQGEFMHVEGHRHIRINGQSTRFDTILHIEIIDGRIKDIKVNLI", "No"),
    ("DREHDELRKTWEIYSQALSTGDEDELNKLADPNTRLDIDGKELHGMEDVHRHLHHNLRRVDHIELRIHEIRYQGDFAHVDGEVIIVYDGVKKSRRVHLILTKINGRWILTSVEFR", "No"),
    ("DEDRLREQATNFIEAMQTGDTKRVDEQIDKDAQLVVGEKKYEGREQISTFVKEMHHQFDHVRLQRVTVSGNKVLLDVVMDFNGKDLRINIVIHMNNGKISQVQVDYTNPEDAKTARG", "No"),
    ("DELERDSRRVMEKLLEILYTGNFDELRKLFDPNVITHIDGRHIHGMHITIRELLRIQEELGYEFVEARMTSTHHQGDKLYVHLEYRIGDKTTRFFWFITKIDGRWWITEMRFE", "No"),
    ("DDEERANRELLELLIHSYRTGDWKLWHELVDPHVRTSLHQGEFEMKSIGRHYVRDIMTYMGVDHVELRHLEIQGDKLIMHLELDVNGRRLHVILFLSKINGVWILREEEIRFI", "No"),
    ("SEHEEEVKHFIELIVHFLKTGDEDHLAKMADPHVRLHIGDKEFHGREDFSKWVHLLLHHWRLKTFILRRVHVQGEKAHIDGQLDFDVDGKKTLLDVHLTVRKIDGRWFIETVIDG", "Yes"),
    ("DELEEEVMEFIRVFIHLLNTGDEDHLHELIDPNVRVEDENEEKHGRDTVEHMQRFFKNLRVTDLKVETFEVQGEFVHVHVDIEERVGDKHFHYKVLYIILKVDGRWLMHQVRFH", "Yes"),
    ("DESHEHIRFWAEIYIRIFETGDWDEMSRLLDPHYRLIQGDKHIVGRERALDHIDKEIKELRIHHIHIKDVKTQGDYVRIDGHVNYNVGDKILRFDFHIKLLVVDGKIKHSEERVR", "No"),
    ("DEEEKSLRFAIKMMEELIQTGDEDLFERLLDPDTRLRVGDKTFHGREQVLKWFEEWLKRMGADHVELRLHDMRVVGDKLDLDVEYRQYVGDKDIHDRRHLIIIKVNGRWYFKEVRIL", "No"),
]
